target-desc: protein kinase C
procedure-text: Usual phorbol ester binding conditions using reconstitution of protein kinase C in phosphatidylserine
run-conditions: usual phorbol ester binding conditions, reconstitution in phosphatidylserine; neristatin 1: mean±sem, 3 experiments
quantity-name: pKi
A value of pKi is the negative decimal logarithm of a concentration given in moles per litre.

Tell me pKi reported for COC(=O)C=C1CC2C=CC(C)(C)C(=O)C34OC(=O)CC3CC(CC(O)C(C)OC(=O)CC(O)CC3CC(OC(=O)C(C)(C)C)C(C)(C)C(O)(CC(C1)O2)O3)O4 (stereo not shown)
7.67
